- protocol.notes: HUVEC growth inhibition – cell-based, human, primary screen (AID 575);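 further: 100% = median of untreated cell wells with 0.1% DMSO on each plate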
- test.context: HUVEC proliferation, CellTiter-Glo luminescence, 72 h; at 10 µM; stronger effect = lower value
Checkbox rule: viability lower than 80% = class 1; viability not lower than 80% = class 0.

Previously resolved entries follow.
Query string: Identify whether the compound "CN(Cc1cnn(C)c1)C(=O)c1cc2ccccc2oc1=O" records viability below 80%.
Result string: class 0

Query string: Identify whether the compound CCCC1O[C@@H]2C[C@H]3[C@@H]4CCC5=CC(=O)C=C[C@]5(C)[C@H]4[C@@H](O)C[C@]3(C)[C@]2(C(=O)CO)O1 (stereo partly drawn) records viability below 80%.
Result string: class 0

Query string: Identify whether the compound "COc1ccc(C(=O)Nc2ccc(S(=O)(=O)Nc3nccnc3OC)cc2)cc1OC" records viability below 80%.
Result string: class 0

Query string: Identify whether the compound "Cc1nnc(SCCCn2c(N3CCCCC3)nc3c2c(=O)[nH]c(=O)n3C)s1" records viability below 80%.
Result string: class 0

Query string: Identify whether the compound "Clc1ccc(-n2nnnc2Sc2ncnc3sccc23)cc1" records viability below 80%.
Result string: class 1

Query string: Identify whether the compound "CS(=O)(=O)N(CC(=O)N1CCc2ccccc2C1)c1ccc2c(c1)OCO2" records viability below 80%.
Result string: class 0

Query string: Identify whether the compound "CCN1CCN(c2nc3c(c(=O)n(C)c(=O)n3C)n2Cc2cccc3ccccc23)CC1" records viability below 80%.
Result string: class 0

Query string: Identify whether the compound "O=C(Nc1ccc(N2CCOCC2)c(Cl)c1)c1ccc(Br)o1" records viability below 80%.
Result string: class 1

Query string: Identify whether the compound "CCOCC(=O)Nc1c(C(=O)Nc2ccc(OC)cc2OC)oc2ccccc12" records viability below 80%.
Result string: class 1

Query string: Identify whether the compound "COc1cccc(OCCOCCN(C)CCO)c1" records viability below 80%.
Result string: class 0

Further cases:
Query string: Identify whether the compound "C/C(=C\C(=O)c1ccc(F)cc1)Nc1ccc(N2CCOCC2)cc1" records viability below 80%.
Result string: class 0

Query string: Identify whether the compound Cc1ccc2c(c1)c1c(n2CC(O)Cn2c(C)nc3ccccc32)/C(=N\O)CCC1 (stereo not drawn) records viability below 80%.
Result string: class 1

Query string: Identify whether the compound "Cc1cc(NS(=O)(=O)Cc2ccccc2)cc(C)c1OCC(=O)N1CCOCC1" records viability below 80%.
Result string: class 0

Query string: Identify whether the compound "CC(C)(C)c1ccc(OCC(=O)O)cc1" records viability below 80%.
Result string: class 0

Query string: Identify whether the compound "CCCc1nc2ccccc2c2nc(N)nn12" records viability below 80%.
Result string: class 0

Query string: Identify whether the compound Cn1c(=O)cc(SCC(=O)NCC2CCCO2)c2ccc(Cl)cc21 (stereo not drawn) records viability below 80%.
Result string: class 0

Query string: Identify whether the compound "COc1ccc(CCN(Cc2cc3cccc(C)c3[nH]c2=O)C(=O)N2CCCC2)cc1OC" records viability below 80%.
Result string: class 0

Query string: Identify whether the compound "c1ccc(-c2nn3nnnc3c3ccccc23)cc1" records viability below 80%.
Result string: class 0

Query string: Identify whether the compound "O=S(=O)(NCc1ccc(Cl)cc1)c1cnc[nH]1" records viability below 80%.
Result string: class 0

Query string: Identify whether the compound "O=C(CC(CC(=O)c1ccccc1)C(=O)O)c1ccccc1" records viability below 80%.
Result string: class 0

Query string: Identify whether the compound "CS(=O)(=O)N(CC(=O)N1CCCCCC1)c1ccc(Br)cc1" records viability below 80%.
Result string: class 0

Query string: Identify whether the compound O=C(Nc1ccc(S(=O)(=O)Nc2ccc(Cl)cc2)cc1)C1CCCO1 (stereo not drawn) records viability below 80%.
Result string: class 1

Query string: Identify whether the compound CCN(CC)C(c1ccc(C)cc1)c1nnnn1C1CCCCC1 (stereo not drawn) records viability below 80%.
Result string: class 0

Query string: Identify whether the compound "O=C(Nc1ccccc1-c1ccccc1)NC1CCN(C(=O)N2CCOCC2)CC1" records viability below 80%.
Result string: class 0

Query string: Identify whether the compound "O=C(c1cccnc1)N1CCN(Cc2ccc3c(c2)OCO3)CC1" records viability below 80%.
Result string: class 0

Query string: Identify whether the compound "CSc1ccccc1NC(=O)CN(Cc1ccccc1)S(C)(=O)=O" records viability below 80%.
Result string: class 0

The reported numbers originate from PubChem BioAssay.
